target: T1, human insulin-like growth factor-I (IGF-I) (human, UniProt P05019 49-118); assay: Biacore low-resolution screen, mAb captured, IGF-I injected
T1 construct: also called IGF1; IGF-1
readout-kind: koff (s⁻¹)
Just the number please, in s⁻¹, no unit attached.

Enquiry: Could you tell me which koff is on file for mAb 7.158.2 (antibody, V domains shown, Kappa light chain (L5/JK3); also called 7.158.1; 7_158_1) VH: QLQLQESGPGLVKPSETLSLTCTVSGGSIRSSSYYWGWIRQPPGKGLEWIGGIYYSGSTYYNPSLKSRVTMSVDTSKNQFSLKLSSVTAADTAVYYCARQRGHSSGWWYFDLWGRGTLVTVSS VL: DIQMTQSPSSVSASVGDSVTITCRASQGISSYLAWYQQKPGKAPKLLIYAASSLQSGVPSRFSGNGSGTDFTLTISSLQPEDFATYYCQQANNFPFTFGPGTKVDIKR ?
Return: 0.0022
